Test system: Fibroblast
Assay: Multiplex assay against human fibroblast
Assay type: toxicity, cell-based
Conditions: 48 h, 10 µM, compound concentration 10 uM, replicate 2
OUTCOME MEASURE: Population Tubulin-Different-Phenotype (%)
Enter your answer as a number in %; do not include the unit.

Example results:
[[record]]
compound = "CCc1nn(CCCN2CCN(c3cccc(Cl)c3)CC2)c(=O)n1CCOc1ccccc1.Cl [NEFAZODONE HYDROCHLORIDE]"
test_system = "Fibroblast"
obs_value = 95

[[record]]
compound = "CNC(=O)Nc1ccc(-c2nc(N3CC4CCC(C3)O4)c3cnn(C4CCC5(CC4)OCCO5)c3n2)cc1"
test_system = "Fibroblast"
obs_value = 92

[[record]]
compound = "Cl.O=C(O)c1cc(-c2ccc(C3CCNCC3)cc2)c2ccc(-c3ccc(C(F)(F)F)cc3)cc2c1"
test_system = "Fibroblast"
obs_value = 58

[[record]]
compound = "CC1=C(C(=O)Nc2cc3cn[nH]c3cc2F)C(c2ccc(C(F)(F)F)cc2)CC(=O)N1 (stereo not given)"
test_system = "Fibroblast"
obs_value = 22

[[record]]
compound = "O=c1cc(N2CCOCC2)oc2c(-c3cccc4c3sc3ccccc34)cccc12"
test_system = "Fibroblast"
obs_value = 88

[[record]]
compound = "C[C@]12CC[C@@H]3c4ccc(O)cc4CC[C@H]3[C@@H]1CC[C@@H]2O [ESTRADIOL]"
test_system = "Fibroblast"
obs_value = 41


## Input Which value of Population Tubulin-Different-Phenotype (%) has been reported for COc1cc2ncn(-c3cc(OCc4ccccc4C(F)(F)F)c(C(N)=O)s3)c2cc1OC [GW843682X] in the records?
## Output 92

## Input Now consider CN1CCN(Cc2ccc(Nc3ncc(Cl)c(Nc4ccccc4S(=O)(=O)N(C)C)n3)cc2)CC1 [DUBERMATINIB] and answer again.
## Output 48

## Input Next: `CCOC(=O)Nc1cc(-c2ccc(C)c(NS(C)(=O)=O)c2)nn2c(C)nnc12`
## Output 1

## Input What do you have for CCCSc1nc(N[C@@H]2C[C@H]2c2ccc(F)c(F)c2)c2nnn([C@@H]3C[C@H](OCCO)[C@@H](O)[C@H]3O)c2n1 [TICAGRELOR] ?
## Output 92

## Input # iterate: `CC(C)Oc1ccccc1C(=O)Nc1ccccc1C(=O)Nc1cccc(S(=O)(=O)C(F)(F)F)c1`
## Output 55

## Input Next: O=C(c1cc2c(cc1F)OC(c1ccc(F)cc1)(c1ccc(Cl)cc1Cl)O2)N1CCOCC1 (stereo not given)
## Output 3

## Input Repeat for the following compound: Cc1ccc2c(c1)c1c(n2CCc2ccc(C)nc2)CCN(C)C1 [LATREPIRDINE]
## Output 79

## Input Another: COc1ccccc1CN[C@H]1C2CCN(CC2)[C@H]1C(c1ccccc1)c1ccccc1 [CP-96345]
## Output 60

----------
System: HEK-293T
Assay: Multiplex assay against HEK293T;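 note: share of the cells with healthy nuclei that show this phenotype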
Format: toxicity, cell-based
Settings: human, 12 h, 10 µM, compound concentration 10 uM, replicate 1
As shown below, each of these molecules has a reported Population Tubulin-Different-Phenotype (%) value.
Write the value in % as a bare number.

Check out these entries, answers already filled in.
[[record]]
smiles_entry = "CC(C)OC(=O)N1CCC(Oc2ncnc3c2cnn3-c2ccc(S(C)(=O)=O)cc2F)CC1"
readout_unit = "%"
obs_value = 61

[[record]]
smiles_entry = "CCc1ccc(OCc2ccccc2C(=O)Nc2ccc3nc(C)cc(N)c3c2)cc1.Cl"
readout_unit = "%"
obs_value = 0

[[record]]
smiles_entry = "COc1cc(Nc2nccc(-c3cnn4nc(OC)ccc34)n2)cc(C(F)(F)F)c1"
readout_unit = "%"
obs_value = 36


Field: next molecule
## Input Suppose we examine the molecule `CC(C)Oc1ccccc1C(=O)Nc1ccccc1C(=O)Nc1cccc(S(=O)(=O)C(F)(F)F)c1` ; what Population Tubulin-Different-Phenotype (%) value has been reported?
## Output 87

----------
// values below are reported Population Tubulin-Different-Phenotype (%)
Tested on: HEK-293T
Assay: Multiplex assay against HEK293T;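 note: share of the cells with healthy nuclei that show this phenotype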
Type: toxicity, cell-based
Details: human, 12 h, 10 µM, compound concentration 10 uM, replicate 1
Write it as a number; the unit % goes unstated.

[[record]]
compound = "C=CC(=O)Nc1ccc2[nH]c(=O)n(C3CCN(Cc4ccc(-c5nc6cc[nH]c(=O)c6cc5-c5ccccc5)cc4)CC3)c2c1 [Borussertib]"
readout_unit = "%"
obs_value = 44

[[record]]
compound = "CC(C)NC(=O)N1CC[C@H](NC2=Nc3cc(F)ccc3N(CC(F)F)c3ccc(Cl)cc32)C1"
readout_unit = "%"
obs_value = 79

[[record]]
compound = "COC(=O)C1=C(C)NC(C)=C(C(=O)OCCCN2CCC(c3ccccc3)(c3ccccc3)CC2)[C@H]1c1cccc([N+](=O)[O-])c1 [NIGULDIPINE]"
readout_unit = "%"
obs_value = 66


Proceed to the following item.
## Input Record request: Population Tubulin-Different-Phenotype (%) value, item COc1ccc(-c2ccc3ncc4c(c3c2)n(-c2ccc(N3CCNCC3)c(C(F)(F)F)c2)c(=O)n4C)cn1.O=C(O)/C=C\C(=O)O [BGT-226]
## Output 100

----------
System: Fibroblast
Test: Multiplex assay against human fibroblast
Type: toxicity, cell-based
Settings: 12 h, 1 µM, compound concentration 1 uM, replicate 2
Parameter Population Normal (%): see the listing below.
Unit % implied. Number only.

Sample records with Population Normal (%):
[[record]]
compound = "CC(C)c1noc(N2CCC(COc3ccc(-c4ccc(S(C)(=O)=O)cc4)nc3)CC2)n1"
readout_unit = "%"
obs_value = 97

[[record]]
compound = "CCc1nn(CCCN2CCN(c3cccc(Cl)c3)CC2)c(=O)n1CCOc1ccccc1.Cl [NEFAZODONE HYDROCHLORIDE]"
readout_unit = "%"
obs_value = 93

[[record]]
compound = "CN1CCN(Cc2ccc(Nc3ncc(Cl)c(Nc4ccccc4S(=O)(=O)N(C)C)n3)cc2)CC1"
readout_unit = "%"
obs_value = 89

[[record]]
compound = "COc1cc(Nc2nccc(-c3cnn4nc(OC)ccc34)n2)cc(C(F)(F)F)c1"
readout_unit = "%"
obs_value = 96

[[record]]
compound = "C=CC(=O)Nc1cccc(Oc2nc(Nc3ccc(N4CCN(C)CC4)cc3OC)ncc2Cl)c1"
readout_unit = "%"
obs_value = 76


## Input Item `CCCSc1nc(N[C@@H]2C[C@H]2c2ccc(F)c(F)c2)c2nnn([C@@H]3C[C@H](OCCO)[C@@H](O)[C@H]3O)c2n1` with Fibroblast - Population Normal (%)?
## Output 94

## Input Try the compound COc1cc2ncn(-c3cc(OCc4ccccc4C(F)(F)F)c(C(N)=O)s3)c2cc1OC [GW843682X]
## Output 89

## Input Another compound to check: `Cc1c[nH]c2nccc(Oc3c(F)cc(Nc4cc(Cl)nc(N)n4)cc3F)c12`
## Output 94

----------
Test system: U2OS
Test: Incucyte cell viability with U2OS; note: filed as whole numbers so only -1 and 0 and 1 occur
Type: toxicity, cell-based
Settings: human, 24 h, 10 µM, compound concentration 10 uM, replicate number 1, timepoint 24 hours
Below is a list of entries, each paired with its recorded Growth Rate value.
I only need the number, thanks.

Use the examples below as a reference point.
[[record]]
compound = "CC(C)c1noc(N2CCC(COc3ccc(-c4ccc(S(C)(=O)=O)cc4)nc3)CC2)n1 [GSK-1292263]"
obs_value = 1

[[record]]
compound = "COc1cc(Nc2nccc(-c3cnn4nc(OC)ccc34)n2)cc(C(F)(F)F)c1"
obs_value = 0

[[record]]
compound = "CCOc1cn(-c2ccc(F)cc2C)nc1C(=O)Nc1ccc(Oc2ccnc3cc(OC)c(OC)cc23)c(F)c1"
obs_value = 1

[[record]]
compound = "Cc1csc(NC(=O)c2cc(F)cc(Oc3cncnc3)c2)n1"
obs_value = 0

[[record]]
compound = "C=CC(=O)Nc1cccc(Sc2nc(Nc3ccc(N4CCN(C)CC4)cc3)ncc2Cl)c1"
obs_value = 0

[[record]]
compound = "CN1CCN(Cc2cc(NC(=O)c3ccc4c(c3)CN(c3ccccc3)CC4)cc(C(F)(F)F)c2)CC1"
obs_value = 0

[[record]]
compound = "CC(C)(C)NC[C@H](O)COc1nsnc1N1CCOCC1 [TIMOLOL]"
obs_value = 1

[[record]]
compound = "CC(C)(O)c1ccccc1CC[C@@H](SCC1(CC(=O)[O-])CC1)c1cccc(/C=C/c2ccc3ccc(Cl)cc3n2)c1.[Na+] [MONTELUKAST SODIUM]"
obs_value = 1

[[record]]
compound = "CC(C)NC(=O)N1CC[C@H](NC2=Nc3cc(F)ccc3N(CC(F)F)c3ccc(Cl)cc32)C1"
obs_value = 0


Now look at this one.
## Input Query: Growth Rate; subject: `S=C=Nc1cccc(NC(=S)NCCCCNC(=S)Nc2cccc(N=C=S)c2)c1`
## Output 0

----------
Measured Population Hoechst High Intensity Objects (%) values are reported for all entries that follow.
System: U2OS
Assay: Multiplex assay against U2OS
Format: toxicity, cell-based
Settings: human, 12 h, 10 µM, compound concentration 10 uM, replicate 1
The answer is to be given in %; state only the numeric part.

Previously resolved entries follow.
[[record]]
compound = "COc1cc2ncn(-c3cc(OCc4ccccc4C(F)(F)F)c(C(N)=O)s3)c2cc1OC [GW843682X]"
readout_unit = "%"
obs_value = 13

[[record]]
compound = "CC(C)c1noc(N2CCC(COc3ccc(-c4ccc(S(C)(=O)=O)cc4)nc3)CC2)n1"
readout_unit = "%"
obs_value = 7

[[record]]
compound = "CC(C)OC(=O)N1CCC(Oc2ncnc3c2cnn3-c2ccc(S(C)(=O)=O)cc2F)CC1"
readout_unit = "%"
obs_value = 6

[[record]]
compound = "CC1=C(C(=O)Nc2cc3cn[nH]c3cc2F)C(c2ccc(C(F)(F)F)cc2)CC(=O)N1 (configuration not stated)"
readout_unit = "%"
obs_value = 8

[[record]]
compound = "CC(C)(C)NC[C@H](O)COc1nsnc1N1CCOCC1"
readout_unit = "%"
obs_value = 6


## Input Recall the recorded Population Hoechst High Intensity Objects (%) for `Cc1c[nH]c2nccc(Oc3c(F)cc(Nc4cc(Cl)nc(N)n4)cc3F)c12` with U2OS and state it.
## Output 9

## Input Repeat for the following compound: `CC(C)CC(=O)Nc1[nH]nc2c1CN(C(=O)C1CCN(C)CC1)C2(C)C`
## Output 3
